Target or system GRK2 (Homo sapiens (Human)): recorded IC50 listed per item.

{"MOLECULE": "Cc1c(Oc2ccc(C(C)N)cc2F)ccc2c1B(O)OC2 (single isomer, unassigned) [G]", "IC50": "13.9 µM"}
{"MOLECULE": "Cc1c(Oc2ccc(C(C)N)cc2F)ccc2c1B(O)OC2 (centres unmarked) [E]", "IC50": "> 20 µM"}
{"MOLECULE": "Cc1c(Oc2ccc(C(C)N)cc2F)ccc2c1B(O)OC2.Cl (single isomer, unassigned)", "IC50": "> 20 µM"}
{"MOLECULE": "Cc1c(Oc2ccc(CN)cc2F)ccc2c1B(O)OC2", "IC50": "> 20 µM"}
{"MOLECULE": "Cc1c(Oc2cccc(CN)c2F)ccc2c1B(O)OC2", "IC50": "> 30 µM"}
